Catalogue of pIC50 values
assayed_system: BRD4 (BD1+BD2) bromodomain (Homo sapiens (Human))
measurement_notes: BRD4 binding inhibition (AlphaScreen, GST-BRD4 vs tetraacetylated histone H4 peptide)
experimental_setup: GST-BRD4 (BD1+BD2) / biotinylated acetyl-histone H4 (Lys5,8,12,16) peptide; read-out: IC50, BRD4 binding inhibition
pIC50: −log10 of the molar value. Structures can show the parent of a compound that is named as a salt.
attribute_measured: pIC50

- molecule: "COc1c(C)ccc2c1nc(NCCCCNC(=O)OCC(C)C)c1nnc(C)n12 [Example 134]"
  obs_value: "≥ 7.30"
- molecule: "COc1cc2nc(NCCCCNC(=O)OCC(C)C)c3nnc(C)n3c2cc1C [Example 468]"
  obs_value: "≥ 7.30"
- molecule: "CCC(CC)C(=O)NCCCCNc1nc2cc(OC)c(OC)cc2n2c(C)nnc12 [Example 78]"
  obs_value: "≥ 7.30"
- molecule: "CCC(CC)C(=O)NCCCCNc1nc2cc(OCCOC)ccc2n2c(C)nnc12 [Example 381]"
  obs_value: "≥ 7.30"
- molecule: "COc1ccc2c(c1)nc(NCCCCNC(=O)[C@H](OC)C(C)C)c1nnc(C)n12 [Example 300]"
  obs_value: "≥ 7.30"
- molecule: "CCOc1cc2nc(NCCCCNC(=O)OC(C)(C)C)c3nnc(C)n3c2cc1OCC [Example 173]"
  obs_value: "≥ 8.00"
- molecule: "COCCOc1ccc2c(c1)nc(NCCCCNC(=O)c1ccccc1OC)c1nnc(C)n12 [Example 414]"
  obs_value: "≥ 7.30"
- molecule: "COc1ccc2c(nc(NCCCCN)c3nnc(C)n32)c1Cl [Example 460, dihydrochloride]"
  obs_value: "≥ 7.30"
- molecule: "COc1cc2nc(NCCCCNC(=O)CC(C)C)c3nnc(C)n3c2cc1NC(=O)Nc1ccccc1 [Example 568]"
  obs_value: "≥ 7.30"
- molecule: "Cc1nnc2c(NCCCCNC(=O)[C@@H](O)C(C)C)nc3cc4c(cc3n12)OCCO4 [Example 183]"
  obs_value: "≥ 7.30"
- molecule: "COc1c(C)ccc2c1nc(NCCCCNC(=O)[C@H](O)C(C)C)c1nnc(C)n12 [Example 136]"
  obs_value: "≥ 7.30"
- molecule: "COc1ccc2c(c1)nc(NCCCCC(=O)NCC(C)C)c1nnc(C)n12 [Example 655]"
  obs_value: "≥ 7.30"
- molecule: "COCCOc1ccc2c(c1)nc(NCCCCNC(=O)CC(C)(C)C)c1nnc(C)n12 [Example 382]"
  obs_value: "≥ 8.00"
- molecule: "COc1cc2nc(-c3ccc4c(c3)nc(NCCCCNC(=O)CC(C)C)c3nnc(C)n34)[nH]c2cc1OC [Example 227]"
  obs_value: "≥ 8.00"
- molecule: "COCCOc1ccc2c(c1)nc(NCCCCNC(=O)[C@@H](NC(=O)[C@@H](O)C(C)C)C(C)C)c1nnc(C)n12 [Example 404]"
  obs_value: "≥ 7.30"
- molecule: "COc1ccc2c(c1)nc(NCCCCNC(=O)[C@@H](NC(=O)CC(C)C)C(C)C)c1nnc(C)n12 [Example 322]"
  obs_value: "≥ 7.30"

----------
Form field: pIC50 (one value per entry).
assayed_system: BRD4 (BD1+BD2) bromodomain (Homo sapiens (Human))
measurement_notes: BRD4 binding inhibition (AlphaScreen, GST-BRD4 vs tetraacetylated histone H4 peptide)
experimental_setup: GST-BRD4 (BD1+BD2) / biotinylated acetyl-histone H4 (Lys5,8,12,16) peptide; read-out: IC50, BRD4 binding inhibition
pIC50: −log10 of the molar value.
attribute_measured: pIC50

- compound: "COc1cc2nc(NCCCCNC(=O)Cc3cccs3)c3nnc(C)n3c2cc1C(F)(F)F [Example 480]"
  obs_value: "≥ 8.00"
- compound: "Cc1nnc2c(NCCCCNC(=O)OC(C)(C)C)nc3cc(C(=O)NCc4ccc(Cl)cc4)ccc3n12 [Example 211]"
  obs_value: "≥ 7.30"
- compound: "CCC(C)C(=O)NCCCCNc1nc2cc(OCCOC)ccc2n2c(C)nnc12 (stereo not shown) [Example 380]"
  obs_value: "≥ 7.30"
- compound: "COc1ccc2c(c1)nc(NCCCCNC(=O)CCC1CCCC1)c1nnc(C)n12 [Example 309]"
  obs_value: "≥ 8.00"
- compound: "Cc1nnc2c(NCCCCNC(=O)c3ccc(Cl)cc3)nc3ccccc3n12 [Example 14]"
  obs_value: "≥ 7.30"
- compound: "Cc1nnc2c(NCCCCNC(=O)c3ccccc3Cl)nc3cc(OCCN4CCOCC4)ccc3n12 [Example 439]"
  obs_value: "≥ 7.30"
- compound: "COc1cc2nc(NCCCCNC(=O)CC(C)C)c3nnc(C)n3c2cc1N [Example 556]"
  obs_value: "≥ 7.30"
- compound: "CCOc1ccc2c(c1)nc(NCCCCNC(=O)OCC(C)C)c1nnc(C)n12 [Example 444]"
  obs_value: "≥ 8.00"
- compound: "Cc1nnc2c(NCCCCNC(=O)OC(C)(C)C)nc3cc(OCCN4CCOCC4)ccc3n12 [Example 430]"
  obs_value: "≥ 7.30"
- compound: "Cc1nnc2c(NCCCCNC(=O)OC3CCCC3)nc3cc(OCCN4CCOCC4)ccc3n12 [Example 437]"
  obs_value: "≥ 7.30"
- compound: "COc1cc2nc(NCCCCNC(=O)Cc3cccs3)c3nnc(C)n3c2cc1OC [Example 84]"
  obs_value: "≥ 7.30"
- compound: "COCCOc1cc2nc(NCCCCNC(=O)OC(C)C)c3nnc(C)n3c2cc1OCCOC [Example 165]"
  obs_value: "≥ 7.30"
- compound: "CCCOC(=O)N[C@H](C(=O)NCCCCNc1nc2cc(N3C[C@@H](C)O[C@@H](C)C3)ccc2n2c(C)nnc12)C(C)C [Example 516]"
  obs_value: "≥ 7.30"

----------
assayed_system: BRD4 (BD1+BD2) bromodomain (Homo sapiens (Human))
measurement_notes: BRD4 binding inhibition (AlphaScreen, GST-BRD4 vs tetraacetylated histone H4 peptide)
experimental_setup: GST-BRD4 (BD1+BD2) vs biotinylated acetyl-histone H4 peptide, AlphaScreen; read-out: BRD4 IC50
Binarize IC50 at 30 nM; below is Satisfied, at or above is Not satisfied.

- structure_string: "COCCOc1ccc2c(c1)nc(NCCCCNC(=O)C(C)(C)OC(C)=O)c1nnc(C)n12"
  assayed_system: "BRD4 (BD1+BD2) bromodomain (Homo sapiens (Human))"
  class: "Not satisfied"
- structure_string: "Cc1nnc2c(NCCCCNC(=O)OC(C)(C)C)nc3cc(C(=O)c4ccccc4)ccc3n12"
  assayed_system: "BRD4 (BD1+BD2) bromodomain (Homo sapiens (Human))"
  class: "Not satisfied"
- structure_string: "COc1ccc2c(c1)nc(NCCCCNC(=O)[C@H](O)C(C)C)c1nnc(C)n12"
  assayed_system: "BRD4 (BD1+BD2) bromodomain (Homo sapiens (Human))"
  class: "Satisfied"
- structure_string: "CCOC(=O)CC(=O)NCCCCNc1nc2cc(OCCOC)ccc2n2c(C)nnc12"
  assayed_system: "BRD4 (BD1+BD2) bromodomain (Homo sapiens (Human))"
  class: "Not satisfied"
- structure_string: "Cc1nnc2c(NCCCCNC(=O)[C@H](O)C(C)C)nc3cc4c(cc3n12)OCCO4"
  assayed_system: "BRD4 (BD1+BD2) bromodomain (Homo sapiens (Human))"
  class: "Satisfied"
- structure_string: "COC(=O)c1ccc2nc(NCCCCNC(=O)OC(C)(C)C)c3nnc(C)n3c2c1"
  assayed_system: "BRD4 (BD1+BD2) bromodomain (Homo sapiens (Human))"
  class: "Not satisfied"
- structure_string: "COc1cc(C)c2c(c1)nc(NCCCCN)c1nnc(C)n12"
  assayed_system: "BRD4 (BD1+BD2) bromodomain (Homo sapiens (Human))"
  class: "Not satisfied"
- structure_string: "COc1c(C)ccc2c1nc(NCCCCNC(=O)OC(C)C)c1nnc(C)n12"
  assayed_system: "BRD4 (BD1+BD2) bromodomain (Homo sapiens (Human))"
  class: "Not satisfied"
- structure_string: "COc1ccc2c(c1)nc(NCCCCNC(=O)[C@H](C(C)C)N1CCOCC1)c1nnc(C)n12"
  assayed_system: "BRD4 (BD1+BD2) bromodomain (Homo sapiens (Human))"
  class: "Not satisfied"
- structure_string: "COc1ccc2nc(NCCCCNC(=O)CC(C)(C)C)c3nnc(C)n3c2c1"
  assayed_system: "BRD4 (BD1+BD2) bromodomain (Homo sapiens (Human))"
  class: "Satisfied"
- structure_string: "COc1cc2nc(NCCCCNC(=O)[C@H](O)C(C)C)c3nnc(C)n3c2cc1OC"
  assayed_system: "BRD4 (BD1+BD2) bromodomain (Homo sapiens (Human))"
  class: "Satisfied"

----------
assayed_system: BRD4 (BD1+BD2) bromodomain (Homo sapiens (Human), UniProt O60885)
measurement_notes: BRD4 binding inhibition (AlphaScreen, GST-BRD4 vs tetraacetylated histone H4 peptide)
experimental_setup: GST-BRD4 (BD1+BD2) vs biotinylated acetyl-histone H4 peptide, AlphaScreen; read-out: BRD4 IC50
pIC50: −log10 of the molar value.
# key: entry, value: pIC50

- structure_string: "CCOc1ccc2c(c1)nc(NCCCCNC(=O)Cc1cccs1)c1nnc(C)n12"
  pIC50: 7.92
- structure_string: "Cc1nnc2c(NCCCCNC(=O)CC(C)(C)C)nc3ccccc3n12"
  pIC50: 7.62
- structure_string: "Cc1nnc2c(NCCCCNC(=O)OCC(C)C)nc3cc4c(cc3n12)OCCO4"
  pIC50: 7.77

Each recorded value in this set is attributed to patent US11028090B2.
